Tested on: influenza A virus A/St. Petersburg/34/72 (H3N2)
experimental protocol: Therapeutic index, ratio of CC50 for dog MDCK cells to EC50 for 100 infective dose of influenza A virus A/St. Petersburg/34/72 (H3N2
Assay type: cell-based
conditions used: read-out: Ratio CC50/EC50
Note to self: use condition met only for selectivity ratio readings below 30; a reading exactly at 30 still gets condition not met.

API: query returns whether the compound falls strictly under 30 in selectivity ratio. Query: CCCC(=O)N(CC(C)/C(=N\c1ccccc1)Nc1ccccc1)c1ccccc1 (racemic) condition met

API: query returns whether the compound falls strictly under 30 in selectivity ratio. Query: CCCCCCCCCCCCC(=O)N(CC(C)/C(=N\c1ccccc1)Nc1ccccc1)c1ccccc1.Cl (racemic) condition not met

API: query returns whether the compound falls strictly under 30 in selectivity ratio. Query: CC(N)C12CC3CC(CC(C3)C1)C2 (stereo unspecified) condition not met

API: query returns whether the compound falls strictly under 30 in selectivity ratio. Query: CCCCCCCCCCC(=O)N(CC(C)/C(=N\c1ccccc1)Nc1ccccc1)c1ccccc1.Cl (racemic) condition not met

API: query returns whether the compound falls strictly under 30 in selectivity ratio. Query: CCCCCCCCCCCCCCCCCC(=O)N(CC(C)/C(=N\c1ccccc1)Nc1ccccc1)c1ccccc1 (racemic) condition met

API: query returns whether the compound falls strictly under 30 in selectivity ratio. Query: CCCCCCCCC(=O)N(CC(C)/C(=N\c1ccccc1)Nc1ccccc1)c1ccccc1.Cl (racemic) condition not met

###

Tested on: influenza A virus A/St. Petersburg/34/72 (H3N2)
experimental protocol: Therapeutic index, ratio of CC50 for dog MDCK cells to EC50 for 1 infective dose of influenza A virus A/St. Petersburg/34/72 (H3N2)
Format: cell-based
conditions used: read-out: Ratio CC50/EC50
property measured: selectivity ratio
Would you mind answering with just the numeric figure?

Dear colleague, I am looking for the recorded selectivity ratio of the following compound: CCCCCCCCC(=O)N(CC(C)/C(=N\c1ccccc1)Nc1ccccc1)c1ccccc1.Cl (racemic) 260

Dear colleague, I am looking for the recorded selectivity ratio of the following compound: CC(=O)N(CC(C)/C(=N\c1ccccc1)Nc1ccccc1)c1ccccc1 (racemic) 2.25

Dear colleague, I am looking for the recorded selectivity ratio of the following compound: CC(N)C12CC3CC(CC(C3)C1)C2 (stereo not drawn) [RIMANTADINE] 256

Dear colleague, I am looking for the recorded selectivity ratio of the following compound: CCCCCCCCCCCCCCCCCC(=O)N(CC(C)/C(=N\c1ccccc1)Nc1ccccc1)c1ccccc1 (racemic) 80

Dear colleague, I am looking for the recorded selectivity ratio of the following compound: CCCC(=O)N(CC(C)/C(=N\c1ccccc1)Nc1ccccc1)c1ccccc1 (racemic) 9

Dear colleague, I am looking for the recorded selectivity ratio of the following compound: CCCCCCCCCCC(=O)N(CC(C)/C(=N\c1ccccc1)Nc1ccccc1)c1ccccc1.Cl (racemic) 514

Dear colleague, I am looking for the recorded selectivity ratio of the following compound: CCCCCCCCCCCCC(=O)N(CC(C)/C(=N\c1ccccc1)Nc1ccccc1)c1ccccc1.Cl (racemic) 128

###

Test system: H3N2 subtype
experimental protocol: Antiviral activity against Influenza A virus (A/Aichi/2/1968(H3N2))-infected in Balb/c mouse at </= 100 mg/kg, sc after 7 to 14 days
Format: functional, organism-based
Set-up: dose 100 mg/kg
Activity calls are given as the source filed them. The calls are words filed in the database; no cut-off is given here.
Outcomes you can answer with include only these: 1 (yes) = active, 0 (no) = inactive

Could you please tell me the result logged for CCCCCCCCCCC(=O)N(CC(C)/C(=N\c1ccccc1)Nc1ccccc1)c1ccccc1.Cl (racemic) in this assay? 0 (no)

Could you please tell me the result logged for CCCCCCCCC(=O)N(CC(C)/C(=N\c1ccccc1)Nc1ccccc1)c1ccccc1.Cl (racemic) in this assay? 0 (no)

Could you please tell me the result logged for CCCCCCCCCCCCC(=O)N(CC(C)/C(=N\c1ccccc1)Nc1ccccc1)c1ccccc1.Cl (racemic) in this assay? 0 (no)

Could you please tell me the result logged for CC(N)C12CC3CC(CC(C3)C1)C2 (centres undefined) in this assay? 1 (yes)
